System: Rice
EXPERIMENT NOTES: Further herbicidal test, various rates
Format: in vivo
ASSAY SETUP: 5 kg/hectare; scale 0 to 5 (complete kill)
OUTCOME MEASURE: Damage to plants, post-emergence

Consider the reported Damage to plants, post-emergence for these compounds:
> print(dat)
                                        smi  test.value
1  Fc1nc(F)c(Cl)c(Nc2c(Cl)c(F)c(Cl)c(F)c2Cl)c1Cl           1
2  O=[N+]([O-])c1ccc(Nc2c(F)c(F)nc(F)c2Cl)c(C(F)(F)F)c1           0
3  O=[N+]([O-])c1ccc(Nc2c(F)c(F)nc(F)c2F)c(C(F)(F)F)c1           0

Req: Dear colleague, please send me the reported Damage to plants, post-emergence for N#Cc1c(F)c(F)c(Nc2c(Cl)c(Cl)nc(Cl)c2Cl)c(F)c1F when you can.
Resp: 0

###

Damage to plants, post-emergence by entry:
Tested on: Oat
EXPERIMENT NOTES: Further herbicidal test, various rates
Format: in vivo
ASSAY SETUP: 5 lb/acre; scale 0 to 5 (complete kill)

// below: answered molecules
> print(dat)
                                   molecule  test.value
1  O=[N+]([O-])c1c(F)c(F)c(Nc2c(Cl)c(F)nc(F)c2Cl)c(F)c1F [Compound 12]           0
2  O=[N+]([O-])c1ccc(Nc2c(Cl)c(F)nc(F)c2Cl)c(C(F)(F)F)c1 [Compound 5]           4
3  N#Cc1c(F)c(F)c(Nc2c(Cl)c(F)nc(F)c2Cl)c(F)c1F [Compound 19]           0

// switching to the query molecule
Req: Give Damage to plants, post-emergence; test system Oat; molecule Fc1nc(F)c(Cl)c(Nc2c(F)c(F)c(F)c(F)c2F)c1Cl [Compound 10]
Resp: 0

###

Tested on: Sugar beet
EXPERIMENT NOTES: Further herbicidal test, various rates
Format: in vivo
ASSAY SETUP: 5 lb/acre; scale 0 to 5 (complete kill)
Listing: Damage to plants, post-emergence of selected compounds
Just the number, please.

Example results:
> print(dat)
                                   compound                   outcome.measure  test.value
1  O=[N+]([O-])c1ccc(Nc2c(Cl)c(F)nc(F)c2Cl)c(C(F)(F)F)c1 [Compound 5]  Damage to plants, post-emergence           5
2  O=[N+]([O-])c1c(F)c(F)c(Nc2c(Cl)c(F)nc(F)c2Cl)c(F)c1F [Compound 12]  Damage to plants, post-emergence           5
3  N#Cc1c(F)c(F)c(Nc2c(Cl)c(F)nc(F)c2Cl)c(F)c1F [Compound 19]  Damage to plants, post-emergence           2

Okay, next one:
Req: Please give measured Damage to plants, post-emergence of the following entry: Fc1nc(F)c(Cl)c(Nc2c(F)c(F)c(F)c(F)c2F)c1Cl [Compound 10]
Resp: 3

###

Test system: Aedes aegypti (mosquito larvae)
EXPERIMENT NOTES: Pest toxicity test
Type: in vivo
ASSAY SETUP: 0.01% by weight; water; 1 day
Reported values of Mortality grading (kill) for individual entries

> print(dat)
                                   compound                           test.value
1  Fc1nc(F)c(Cl)c(Nc2c(Cl)cccc2Cl)c1Cl [Compound 3]  0 (O represents less than 30% kill)

Req: Quick one: give measured Mortality grading (kill) for O=[N+]([O-])c1ccc(Nc2c(F)c(F)nc(F)c2Cl)c(C(F)(F)F)c1 [Compound 32]
Resp: 3 (3 represents over 90% kill)

Req: # return recorded Mortality grading (kill) for input O=[N+]([O-])c1c(F)c(F)c(Nc2c(Cl)c(F)nc(F)c2Cl)c(F)c1F [Compound 12]
Resp: 3 (3 represents over 90% kill)

Req: State its Mortality grading (kill): COc1nc(F)c(Cl)c(Nc2c(F)c(F)c(C#N)c(F)c2F)c1Cl [Compound 21]
Resp: 3 (3 represents over 90% kill)

Req: Item Fc1nc(F)c(Cl)c(Nc2c(Cl)c(Cl)c(Cl)c(Cl)c2Cl)c1Cl [Compound 9] : provide Mortality grading (kill)
Resp: 3 (3 represents over 90% kill)

Req: Identify measured Mortality grading (kill) corresponding to O=[N+]([O-])c1ccc(Nc2c(F)c(F)nc(F)c2F)c(C(F)(F)F)c1 [Compound 28]
Resp: 3 (3 represents over 90% kill)

###

Mortality grading (kill) overview
Test system: Aedes aegypti (mosquito larvae)
EXPERIMENT NOTES: Pest toxicity test
Assay type: in vivo
ASSAY SETUP: 0.01% by weight; water; 1 day

Here are 3 compounds together with their reported answers.
> print(dat)
                                   compound                    system.tested                           test.value
1  Fc1nc(F)c(Cl)c(Nc2cc(C(F)(F)F)ccc2Br)c1Cl [Compound 13]  Aedes aegypti (mosquito larvae)  0 (O represents less than 30% kill)
2  Fc1ccc(Nc2c(Cl)c(F)nc(F)c2Cl)cc1 [Compound 4]  Aedes aegypti (mosquito larvae)  0 (O represents less than 30% kill)
3  Fc1nc(F)c(Cl)c(Nc2c(F)c(F)c(F)c(F)c2F)c1Cl [Compound 10]  Aedes aegypti (mosquito larvae)       2 (2 represents 60 - 90% kill)

Req: Give reported Mortality grading (kill) value for O=[N+]([O-])c1ccc(Nc2c(Cl)c(F)nc(Cl)c2Cl)c(C(F)(F)F)c1 [Compound 44]
Resp: 3 (3 represents over 90% kill)

###

System: Aedes aegypti (mosquito larvae)
EXPERIMENT NOTES: Pest toxicity test
Assay type: in vivo
ASSAY SETUP: 0.01% by weight; water; 1 day
OUTCOME MEASURE: Mortality grading (kill)

Answered cases to consult:
> print(dat)
                                   molecule                           test.value
1  N#Cc1cc([N+](=O)[O-])c(Nc2c(Cl)c(F)nc(F)c2Cl)c([N+](=O)[O-])c1 [Compound 34]       3 (3 represents over 90% kill)
2  O=[N+]([O-])c1cc(Cl)cc([N+](=O)[O-])c1Nc1c(Cl)c(F)nc(F)c1Cl [Compound 29]       3 (3 represents over 90% kill)
3  O=[N+]([O-])c1ccc(Nc2c(Cl)c(F)nc(F)c2Cl)c([N+](=O)[O-])c1 [Compound 1]  0 (O represents less than 30% kill)

Req: Give the reported Mortality grading (kill) for this molecule. O=[N+]([O-])c1cc(Cl)c(Nc2c(Cl)c(F)nc(F)c2Cl)cc1Cl [Compound 24]
Resp: 3 (3 represents over 90% kill)
